These measurements were taken from patent US20080058636A1.

target: human collagen type I (acid soluble, extracted from placenta, Sigma C7774) (human) (UniProt P02452); experiment: dried collagen assay
Sequence (P02452 162-1218 limits assumed, chain 1 of 2): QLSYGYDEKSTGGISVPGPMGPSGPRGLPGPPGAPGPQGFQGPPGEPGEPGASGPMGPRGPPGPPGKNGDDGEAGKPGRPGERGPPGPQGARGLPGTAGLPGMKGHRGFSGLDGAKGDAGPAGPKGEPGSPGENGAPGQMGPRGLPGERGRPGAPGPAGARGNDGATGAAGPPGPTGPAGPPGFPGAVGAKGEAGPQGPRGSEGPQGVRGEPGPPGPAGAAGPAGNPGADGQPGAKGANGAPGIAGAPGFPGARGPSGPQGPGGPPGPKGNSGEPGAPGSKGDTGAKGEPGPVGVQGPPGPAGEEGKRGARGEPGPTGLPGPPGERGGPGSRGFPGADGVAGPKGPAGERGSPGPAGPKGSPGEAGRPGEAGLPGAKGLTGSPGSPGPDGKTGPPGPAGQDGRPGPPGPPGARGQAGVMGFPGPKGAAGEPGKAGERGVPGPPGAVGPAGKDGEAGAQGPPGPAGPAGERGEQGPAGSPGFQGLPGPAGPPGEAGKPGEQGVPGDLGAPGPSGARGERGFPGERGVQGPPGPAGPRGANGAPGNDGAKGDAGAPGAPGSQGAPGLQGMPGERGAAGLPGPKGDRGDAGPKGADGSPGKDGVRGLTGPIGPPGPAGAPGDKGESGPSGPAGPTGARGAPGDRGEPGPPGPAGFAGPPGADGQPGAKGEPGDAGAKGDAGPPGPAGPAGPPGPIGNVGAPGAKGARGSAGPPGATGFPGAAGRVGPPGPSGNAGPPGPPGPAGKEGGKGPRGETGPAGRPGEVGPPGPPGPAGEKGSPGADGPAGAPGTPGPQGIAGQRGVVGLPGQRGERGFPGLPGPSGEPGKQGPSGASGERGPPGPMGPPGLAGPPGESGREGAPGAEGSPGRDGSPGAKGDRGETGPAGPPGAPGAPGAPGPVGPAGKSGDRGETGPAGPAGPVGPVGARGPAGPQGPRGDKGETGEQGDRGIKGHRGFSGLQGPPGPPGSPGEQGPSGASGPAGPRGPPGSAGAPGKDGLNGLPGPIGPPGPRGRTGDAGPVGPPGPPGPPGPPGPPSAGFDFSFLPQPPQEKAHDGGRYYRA
Sequence (P08123 80-1119 limits assumed, chain 2 of 2, further chain): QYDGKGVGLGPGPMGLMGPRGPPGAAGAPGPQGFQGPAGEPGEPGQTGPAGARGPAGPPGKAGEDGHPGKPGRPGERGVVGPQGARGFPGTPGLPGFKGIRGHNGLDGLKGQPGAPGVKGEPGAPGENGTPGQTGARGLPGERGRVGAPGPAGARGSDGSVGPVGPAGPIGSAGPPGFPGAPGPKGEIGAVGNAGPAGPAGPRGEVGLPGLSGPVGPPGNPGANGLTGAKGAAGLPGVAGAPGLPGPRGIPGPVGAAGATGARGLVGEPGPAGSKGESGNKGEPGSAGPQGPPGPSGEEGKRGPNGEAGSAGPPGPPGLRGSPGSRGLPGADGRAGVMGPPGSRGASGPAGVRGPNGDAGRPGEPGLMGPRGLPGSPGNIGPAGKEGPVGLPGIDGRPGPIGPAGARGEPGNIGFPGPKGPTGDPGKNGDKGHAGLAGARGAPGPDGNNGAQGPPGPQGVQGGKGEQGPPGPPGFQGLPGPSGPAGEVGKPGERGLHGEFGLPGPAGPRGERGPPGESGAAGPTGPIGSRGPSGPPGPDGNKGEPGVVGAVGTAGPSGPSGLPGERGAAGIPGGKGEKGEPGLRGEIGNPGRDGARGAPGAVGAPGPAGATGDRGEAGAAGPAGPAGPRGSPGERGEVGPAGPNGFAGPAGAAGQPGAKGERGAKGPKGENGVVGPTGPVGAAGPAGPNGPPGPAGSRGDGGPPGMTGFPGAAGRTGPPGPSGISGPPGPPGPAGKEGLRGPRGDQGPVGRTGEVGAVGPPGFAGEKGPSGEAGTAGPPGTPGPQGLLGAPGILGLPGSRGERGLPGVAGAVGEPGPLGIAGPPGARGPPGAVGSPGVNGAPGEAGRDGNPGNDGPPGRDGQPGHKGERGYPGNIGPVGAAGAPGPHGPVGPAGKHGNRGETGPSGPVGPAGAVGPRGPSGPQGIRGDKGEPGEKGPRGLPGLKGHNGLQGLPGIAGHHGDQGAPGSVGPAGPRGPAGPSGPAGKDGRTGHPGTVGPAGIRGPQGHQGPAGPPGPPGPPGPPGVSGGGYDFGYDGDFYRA
Bridge positions count the residues as written; N and C are the ends. Ends that are not written are not given here.
Parameter: Dried Human Collagen Binding

{"Binder": "AKKCWYNDGGHLRCRTL (disulfide 4-14; not fully specified (C-terminus)) [SEQ ID NO: 99]", "Parameter": "Dried Human Collagen Binding", "Result value": "3%"}
{"Binder": "NWYCSQALDNWSCKLR (disulfide 4-13; also: C-terminus likely amidated (Rink amide resin)) [SEQ ID NO: 63]", "Parameter": "Dried Human Collagen Binding", "Result value": "8%"}
{"Binder": "TWMCVDPPLWRCWVQ (disulfide 4-12; also: C-terminus probably amidated (Rink amide resin)) [SEQ ID NO: 4]", "Parameter": "Dried Human Collagen Binding", "Result value": "45%"}
{"Binder": "GWACNTTSKGDWECTNL (disulfide 4-14; not fully specified (C-terminus)) [SEQ ID NO: 83]", "Parameter": "Dried Human Collagen Binding", "Result value": "3%"}
{"Binder": "LWNCHGTDANWKCVLN (disulfide 4-13; also: C-terminus probably amidated (Rink amide resin)) [SEQ ID NO: 37]", "Parameter": "Dried Human Collagen Binding", "Result value": "7%"}
